Target: 5HT-Transporter (Homo sapiens)
Construct: Human platelet membranes (Oceanix Biosciences Corporation, Hanover, Md., USA) were thawed; tissue Oceanix Biosciences Corporation, Hanover, Md., USA; host or cells: human platelet membranes
Sequence (P31645 whole entry): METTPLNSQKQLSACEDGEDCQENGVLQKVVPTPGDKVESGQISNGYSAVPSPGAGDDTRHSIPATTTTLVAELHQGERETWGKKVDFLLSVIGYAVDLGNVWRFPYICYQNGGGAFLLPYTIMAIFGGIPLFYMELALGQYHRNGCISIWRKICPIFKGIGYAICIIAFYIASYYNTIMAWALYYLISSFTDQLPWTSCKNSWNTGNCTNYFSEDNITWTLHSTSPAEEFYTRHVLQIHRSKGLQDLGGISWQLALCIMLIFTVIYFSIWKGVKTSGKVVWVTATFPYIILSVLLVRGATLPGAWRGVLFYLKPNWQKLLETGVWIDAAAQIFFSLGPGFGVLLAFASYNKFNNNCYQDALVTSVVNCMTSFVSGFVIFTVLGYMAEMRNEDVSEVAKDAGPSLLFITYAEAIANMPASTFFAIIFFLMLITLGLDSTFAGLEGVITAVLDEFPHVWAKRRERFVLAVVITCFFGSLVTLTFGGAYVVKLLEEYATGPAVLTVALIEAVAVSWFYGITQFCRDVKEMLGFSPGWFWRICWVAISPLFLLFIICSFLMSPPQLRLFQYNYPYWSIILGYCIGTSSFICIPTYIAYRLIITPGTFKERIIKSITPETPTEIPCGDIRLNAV
Experiment: Binding experiment for the 5HT-transporter ([3H]paroxetine, human platelet membranes)
Settings: [3H]paroxetine 0.5 nM, read-out: h-5HTT pIC50 (converted)
Just a reminder that ties go to -1: only IC50 strictly below 1000 nM counts as 1.

Please state whether IC50 is below 1000 nM for C/C(=C\c1ccccc1)CN1CCC(Nc2nccn(Cc3ccc(CNS(C)(=O)=O)cc3)c2=O)CC1
-1

Please state whether IC50 is below 1000 nM for CC(=O)N1CCN(C(=O)Cn2ccnc(NC3CCN(C/C(C)=C/c4ccccc4)CC3)c2=O)CC1
-1

Please state whether IC50 is below 1000 nM for C/C(=C\c1ccccc1)CN1CCC(Nc2nccn(CCCN(c3ccccc3)S(=O)(=O)c3ccccc3)c2=O)CC1
1

Please state whether IC50 is below 1000 nM for C/C(=C\c1ccccc1)CN1CCC(Nc2nccn(-c3ccc(NC(=O)CC4CCCC4)cc3)c2=O)CC1
-1

Please state whether IC50 is below 1000 nM for COC(=O)Cn1ccnc(NC2CCN(C/C(C)=C/c3ccccc3)CC2)c1=O
-1

Please state whether IC50 is below 1000 nM for C/C(=C\c1ccccc1)CN1CCC(Nc2nccn(-c3cccc(N4CCOCC4)c3)c2=O)CC1
1

Please state whether IC50 is below 1000 nM for C/C(=C\c1ccccc1)CN1CCC(Nc2nccn(CC(=O)N(CCN(C)C)Cc3ccc(F)cc3)c2=O)CC1
-1

Please state whether IC50 is below 1000 nM for COC(=O)C1CCN(C(=O)Cn2ccnc(NC3CCN(C/C(C)=C/c4ccccc4)CC3)c2=O)CC1
-1

// provenance: patent US20090111801A1
